- Test system: Saccharomyces cerevisiae
- TEST SUMMARY: protein stability index of tFT-peptide fusion (C-terminal peptide) (PSI (0-1 scale)); higher = more stable (slower turnover)
- CONDITIONS: genetic background: das1 deletion; temperature: 30 C
Item-by-item account of protein stability index
Number only, no unit.

Some entries whose results are on file:
STDQLPELSFEV [TVP38 C-terminal 12 aa]    0.699
GTLVLGTYLLAQ [SHH3 C-terminal 12 aa]    0.612
SINGVNLELIKD [MIX14 C-terminal 12 aa]    0.691
LLCSDLVNGLMQ [SEC21 C-terminal 12 aa]    0.706
EHIGAQNTGDGR [YER187W C-terminal 12 aa]    0.689

Fill in protein stability index for QTTFLATAIVLC [YOR331C C-terminal 12 aa] tested with Saccharomyces cerevisiae.
0.441
